All values here come from paper PMC10786891.

Target: T1, EsCas13d, nuclease-dead (Eubacterium siraeum, UniProt B0MS50, R295A;H300A;R849A;H854A)
T1 sequence: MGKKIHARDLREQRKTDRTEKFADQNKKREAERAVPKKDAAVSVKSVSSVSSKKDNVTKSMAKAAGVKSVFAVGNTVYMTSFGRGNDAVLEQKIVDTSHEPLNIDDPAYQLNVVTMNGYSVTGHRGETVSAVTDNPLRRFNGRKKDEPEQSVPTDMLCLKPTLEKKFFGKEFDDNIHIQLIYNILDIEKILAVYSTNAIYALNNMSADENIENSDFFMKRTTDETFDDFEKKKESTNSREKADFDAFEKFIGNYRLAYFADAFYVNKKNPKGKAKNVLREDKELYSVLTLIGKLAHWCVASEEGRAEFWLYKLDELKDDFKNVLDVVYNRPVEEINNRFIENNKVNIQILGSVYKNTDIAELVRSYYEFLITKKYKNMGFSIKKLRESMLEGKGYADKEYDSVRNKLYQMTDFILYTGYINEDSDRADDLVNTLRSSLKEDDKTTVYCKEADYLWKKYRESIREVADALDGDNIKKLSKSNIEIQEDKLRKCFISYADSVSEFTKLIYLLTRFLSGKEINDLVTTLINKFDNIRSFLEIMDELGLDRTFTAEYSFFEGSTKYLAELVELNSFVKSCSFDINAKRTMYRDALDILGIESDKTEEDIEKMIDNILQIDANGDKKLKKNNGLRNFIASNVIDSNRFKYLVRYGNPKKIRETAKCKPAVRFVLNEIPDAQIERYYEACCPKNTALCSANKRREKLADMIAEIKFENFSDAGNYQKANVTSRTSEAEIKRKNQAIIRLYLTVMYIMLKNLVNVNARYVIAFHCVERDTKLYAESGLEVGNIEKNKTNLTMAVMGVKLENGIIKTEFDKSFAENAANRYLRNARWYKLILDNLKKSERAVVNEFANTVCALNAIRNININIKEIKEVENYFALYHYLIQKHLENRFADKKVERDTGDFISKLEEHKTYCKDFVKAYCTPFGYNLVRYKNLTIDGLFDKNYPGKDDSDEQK
Assay: crRNA (strand 1, pre-loaded); Mg2+; 40 mM Tris-HCl pH 7.5, 150 mM NaCl, 6 mM MgCl2, 1 mM DTT, 0.1% Tween-20, 0.2 mg/ml BSA; 25 C; 10 min per concentration, then washed
Conditions: tags: His6-TwinStrep-SUMO cleaved; N-terminal SNAP kept (SNAP-Surface 488); label: 3' end held by stalled T7 RNA polymerase
parameter: Kd (nM)
Give the number; nM is assumed, so skip it.

Read the entry target 3 insC 3' of 8,insG 3' of 6 (mixed) RNA 1: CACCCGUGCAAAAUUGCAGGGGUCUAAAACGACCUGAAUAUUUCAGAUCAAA RNA 2: GGGAAUGGAUCCACAUCUACGAAUUCGUUUUUGAUCUGAAAUAUCUCGAGGUCUGCAGAUCGGAAGAGCACACGU and write its reported Kd.
79.5
